B1: Pistol ribozyme (parent)
chain: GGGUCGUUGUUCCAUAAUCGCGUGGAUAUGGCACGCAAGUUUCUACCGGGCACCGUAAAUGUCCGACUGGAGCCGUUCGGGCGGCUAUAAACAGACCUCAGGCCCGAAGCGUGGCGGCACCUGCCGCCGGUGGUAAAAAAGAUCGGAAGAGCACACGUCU

- Variants of: B1
- protocol.summary: aptazyme ON/OFF ratio, guanine; higher = stronger switching; co-transcriptional cleavage with and without guanine
reported.metric: aptazyme ON/OFF ratio
Give bare numbers.

Quick one: give me aptazyme ON/OFF ratio for each item below, same order please.
1. U7G U8C G9C U10A U11G
2. U7A U8G U10C U11G
3. G9C U10A U11A C12G C13U
4. U7G U8C G9U U10C U11A C12G C13G
5. U7C U8G G9U C12U C13G

Given back:
[1.51, 1.29, 1.38, 1.31, 1.33]

Respectfully, I request aptazyme ON/OFF ratio for each entry included below.
1. U8G G9C U10C U11G C13A
2. U8C G9C U10C U11G C12U C13U
3. U7C G9A U10G
4. U7C U8A G9U U10A U11A C13G
5. U7G U8G U10A U11C C12A C13A
6. U7G U8A G9U U10A U11A C12A C13G
7. U7C U8C G9U U10C C13A
8. U10A U11G C12A

Given back:
1: 1.17; 2: 1.06; 3: 1.42; 4: 1.07; 5: 1.34; 6: 1.08; 7: 1.2; 8: 1.13

Value sought for every listed variant: aptazyme ON/OFF ratio.
1. U7G U8G G9A U11C C12A C13G
2. U7A U8C G9A U10A U11A C12A C13G
3. G9U U10G U11A C12U C13A
4. U7G U8C G9A C13G
5. U7C G9U U10G C12G C13A

Given back:
1.15
1.18
1.21
1.03
1.2

Hi! Can you tell me aptazyme ON/OFF ratio for each of these variants?
1. U7G U8C G9U U10A U11A C12G C13G
2. U7C U8C G9C U11C C12A
3. U7A U8A U10C C13A
4. U7A U8A U10C U11C C13A
5. U7G U8A G9U U10C U11G C12G C13A

Given back:
[1.16, 1.22, 1.11, 1.01, 1.07]

Give measured aptazyme ON/OFF ratio for every item shown.
1. U7A U8C G9A U10A U11A C13U
2. U7C G9U U10G U11G C12U C13U
3. U7G U8C G9U U10C U11A C12A C13U

Given back:
[1.18, 1.11, 2.1]

Each variant below has a recorded value; state its aptazyme ON/OFF ratio.
1. G9U U10G U11A C12A
2. U7A U8C U11A C13U

Given back:
[1.63, 1.15]

Fill in aptazyme ON/OFF ratio for each of the 4 variants listed.
1. U7A U8A G9U U10G U11A C12A
2. U10A U11A
3. U8A G9U U10A U11G C12G C13A
4. U7A G9U U11C C13G

Given back:
[1.29, 1.73, 1.1, 1.08]

For each of the variants below, note its aptazyme ON/OFF ratio.
1. U7A U8A G9C U10C U11A C13U
2. U8G G9A U10G C12A C13G
3. U7C G9U U10A C12A C13U
4. U7A U8A G9C U10G U11A C12G C13U
5. U7C U8G G9U U11G C13A
6. U8A G9C U10G U11C C12U

Given back:
1: 1.13; 2: 1.18; 3: 1.36; 4: 1.13; 5: 1.21; 6: 1.05
